Target: modified hASL^Lys3UUU
Assay: fluorescent binding assay of fluorescein-labeled peptides, binding constants
Details: Modified hASL^Lys3UUU; N-terminal fluorescein peptide, phosphate buffer pH 6.8, ASL 0-3 μM
Where a SMILES comes first, the peptide text is derived from it.
READOUT_TYPE: pKd
Answers are plain numbers, as −log10 of the molar value.

Identify the reported pKd for the following entry. CSCC[C@H](NC(=O)[C@H](CCC(N)=O)NC(=O)[C@H](Cc1c[nH]c2ccccc12)NC(=O)[C@@H](N)CCCNC(=N)N)C(=O)N[C@H](C(=O)N[C@@H](C)C(=O)N[C@@H](Cc1ccccc1)C(=O)N[C@@H](C)C(=O)N[C@@H](Cc1c[nH]cn1)C(=O)NCC(=O)N[C@@H](Cc1c[nH]c2ccccc12)C(=O)N[C@@H](CCCNC(=N)N)C(=O)N[C@@H](Cc1c[nH]cn1)C(=O)N[C@@H](CO)C(=O)NCC(=O)O)[C@@H](C)O [Peptide P27, RWQMTAFAHGWRHSG] (H-RWQMTAFAHGWRHSG-OH) 7.30
